- Tested on: Panc 05.04 cells (SF3b K700E mutant)
- assayComment: Cell proliferation and viability, CellTiter-Glo, 72 hours
- Assay type: cell-based
- testSettings: Panc 05.04, read-out: CTGlo-ATS GMean GI50 (nM) 72 h PANC0504.1; PANC0504.1 cells, 72 h; geometric mean

compound: C/C(=C\c1ccc(C)c2[nH]ncc12)[C@H]1OC(=O)C[C@H](O)CC[C@H](C)[C@@H](OC(=O)N2CCN(C)CC2)/C=C/[C@@H]1C [Compound 89]
outputUnit: nM
GI50: 109

compound: C/C(=C\c1cc(F)cc(N2CCC3(COC3)C2)c1)[C@H]1OC(=O)C[C@H](O)CC[C@H](C)[C@@H](OC(=O)N2CCN(C)CC2)/C=C/[C@@H]1C [Compound 33]
outputUnit: nM
GI50: 10

compound: C/C(=C\c1cc(F)c2cnn(CC(=O)N(C)C)c2c1)[C@H]1OC(=O)C[C@H](O)CC[C@H](C)[C@@H](OC(=O)N2CCN(C)CC2)/C=C/[C@@H]1C [Compound 132]
outputUnit: nM
GI50: 13.6

compound: C/C(=C\c1cc(F)cc(N2CCN(S(C)(=O)=O)CC2)c1)[C@H]1OC(=O)C[C@H](O)CC[C@H](C)[C@@H](OC(=O)N2CCN(C)CC2)/C=C/[C@@H]1C [Compound 58]
outputUnit: nM
GI50: 6.97

compound: C/C(=C\c1cc(F)cc(N2CCN(C(=O)c3cnco3)CC2)c1)[C@H]1OC(=O)C[C@H](O)CC[C@H](C)[C@@H](OC(=O)N2CCN(C)CC2)/C=C/[C@@H]1C [Compound 123]
outputUnit: nM
GI50: 2.75

compound: C/C(=C\c1cc(F)cc(N2CCOCC2)c1)[C@H]1OC(=O)C[C@@H](O)CC[C@@](C)(O)[C@@H](OC(=O)N2CCC(N3CCCCC3)CC2)/C=C/[C@@H]1C [Compound 63]
outputUnit: nM
GI50: 41.2

compound: C/C(=C\c1cc(F)c2cnn(CC#N)c2c1)[C@H]1OC(=O)C[C@H](O)CC[C@H](C)[C@@H](OC(=O)N2CCN(C)CC2)/C=C/[C@@H]1C [Compound 131]
outputUnit: nM
GI50: 27.1

compound: C/C(=C\c1cc(F)cc(N2CCN(CC(F)(F)F)CC2)c1)[C@H]1OC(=O)C[C@H](O)CC[C@H](C)[C@@H](OC(=O)N2CCN(C)CC2)/C=C/[C@@H]1C [Compound 107]
outputUnit: nM
GI50: 8.46

compound: C/C(=C\c1cc(F)cc(N2CCOCC2)c1)[C@H]1OC(=O)C[C@H](O)CC[C@H](C)[C@@H](OC(=O)N2CCN(C)[C@H](C)C2)/C=C/[C@@H]1C [Compound 23]
outputUnit: nM
GI50: 10.4

compound: C/C(=C\c1cc(F)cc(N2C[C@@H](C)O[C@@H](C)C2)c1)[C@H]1OC(=O)C[C@H](O)CC[C@H](C)[C@@H](OC(=O)N2CCC(N3CCCCC3)CC2)/C=C/[C@@H]1C [Compound 16]
outputUnit: nM
GI50: 41.5

compound: C/C(=C\c1cccc(N2CCNCC2)c1)[C@H]1OC(=O)C[C@H](O)CC[C@H](C)[C@@H](OC(=O)N2CCN(C)CC2)/C=C/[C@@H]1C [Compound 1]
outputUnit: nM
GI50: 54.8

compound: C/C(=C\c1cc(F)c2cnn(CC3CC3)c2c1)[C@H]1OC(=O)C[C@H](O)CC[C@H](C)[C@@H](OC(=O)N2CCN(C)CC2)/C=C/[C@@H]1C [Compound 87]
outputUnit: nM
GI50: 4.19

====

Listed here: items and their measured IC50.
- targetOrSystem: SF3b complexes (Homo sapiens, UniProt O75533+Q7RTV0)
- Construct: endogenous in cells; host or cells: Nuclear extracts; A HeLa S3 extract preparation is described for the in vitro splicing assay
- assayComment: Scintillation proximity assay (SPA) with [3H]-labelled pladienolide probe
- Type: binding
- testSettings: SF3B1 (WT); geometric mean; read-out: SPA-ATS GMean IC50 (nM) SF3B1 (WT)
observationType: IC50

compound: C/C(=C\c1cc(F)cc(N2CCN(CCO)C(=O)C2)c1)[C@H]1OC(=O)C[C@H](O)CC[C@H](C)[C@@H](OC(=O)N2CCN(C)CC2)/C=C/[C@@H]1C [Compound 104]
observationType: IC50
measurement: 2.1 nM
--
compound: C/C(=C\c1cc(F)cc(Cl)c1)[C@H]1OC(=O)C[C@H](O)CC[C@H](C)[C@@H](OC(=O)N2CCN(C)CC2)/C=C/[C@@H]1C [Compound 167]
observationType: IC50
measurement: 3.19 nM
--
compound: C/C(=C\c1cc(F)cc(-n2ccnc2)c1)[C@H]1OC(=O)C[C@H](O)CC[C@H](C)[C@@H](OC(=O)N2CCN(C)CC2)/C=C/[C@@H]1C [Compound 60]
observationType: IC50
measurement: 2.99 nM
--
compound: C/C(=C\c1cc(F)cc(N2CCOCC2)c1)[C@H]1OC(=O)C[C@H](O)CC[C@H](C)[C@@H](OC(=O)N2CCN(C)C(C)(C)C2)/C=C/[C@@H]1C [Compound 246]
observationType: IC50
measurement: 5.8 nM
--
compound: C/C(=C\c1cccc(NS(=O)(=O)C2CC2)c1)[C@H]1OC(=O)C[C@H](O)CC[C@H](C)[C@@H](OC(=O)N2CCN(C)CC2)/C=C/[C@@H]1C [Compound 216]
observationType: IC50
measurement: 3.32 nM

====

- Tested on: Panc 05.04 cells (SF3b K700E mutant)
- assayComment: Cell proliferation and viability, CellTiter-Glo, 72 hours
- Type: cell-based
- testSettings: Panc 05.04, read-out: CTGlo-ATS GMean GI50 (nM) 72 h PANC0504.1; PANC0504.1 cells, 72 h; geometric mean
observationType: log10(GI50) (log10 of the value in nM)

structure: C/C(=C\c1cc(F)cc(N(C)C2CCOCC2)c1)[C@H]1OC(=O)C[C@H](O)CC[C@H](C)[C@@H](OC(=O)N2CCN(C)CC2)/C=C/[C@@H]1C
log10(GI50): 1.02
--
structure: C/C(=C\c1cc(F)cc(Cl)c1)[C@H]1OC(=O)C[C@H](O)CC[C@H](C)[C@@H](OC(=O)N2CCN(C)CC2)/C=C/[C@@H]1C
log10(GI50): 1.53
--
structure: CC(=O)N1CCC(n2nnc3c(F)cc(/C=C(\C)[C@H]4OC(=O)C[C@H](O)CC[C@H](C)[C@@H](OC(=O)N5CCN(C)CC5)/C=C/[C@@H]4C)cc32)CC1
log10(GI50): 0.06
--
structure: C/C(=C\c1cc(F)cc(N2CCOCC2)c1)[C@H]1OC(=O)C[C@H](O)CC[C@H](C)[C@@H](OC(=O)N2CCN(C(C)(C)C)CC2)/C=C/[C@@H]1C
log10(GI50): 1.31
--
structure: C/C(=C\c1cc(F)cc(N(C)C2CCN(C)CC2)c1)[C@H]1OC(=O)C[C@H](O)CC[C@H](C)[C@@H](OC(=O)N2CCN(C)CC2)/C=C/[C@@H]1C
log10(GI50): 1.72
--
structure: C/C(=C\c1cc(F)cc(N2CCS(=O)(=O)CC2)c1)[C@H]1OC(=O)C[C@H](O)CC[C@H](C)[C@@H](OC(=O)N(C)C)/C=C/[C@@H]1C
log10(GI50): 1.91
--
structure: C/C(=C\c1cc(F)cc(N2CCN(S(=O)(=O)CCN3CCOCC3)CC2)c1)[C@H]1OC(=O)C[C@H](O)CC[C@H](C)[C@@H](OC(=O)N2CCN(C)CC2)/C=C/[C@@H]1C
log10(GI50): 0.84
--
structure: C/C(=C\c1cc(F)cc(N2CCN(S(=O)(=O)C3COC3)CC2)c1)[C@H]1OC(=O)C[C@H](O)CC[C@H](C)[C@@H](OC(=O)N2CCN(C)CC2)/C=C/[C@@H]1C
log10(GI50): 0.83
--
structure: C/C(=C\c1cc(F)cc(N2CCN(CCO)C(=O)C2)c1)[C@H]1OC(=O)C[C@H](O)CC[C@H](C)[C@@H](OC(=O)N2CCN(C)CC2)/C=C/[C@@H]1C
log10(GI50): 0.66
--
structure: CN[C@H]1CCN(c2cc(F)cc(/C=C(\C)[C@H]3OC(=O)C[C@H](O)CC[C@H](C)[C@@H](OC(=O)N4CCN(C)CC4)/C=C/[C@@H]3C)c2)C1
log10(GI50): 1.70
--
structure: C/C(=C\c1cc(F)cc(N2CCC(=O)C2)c1)[C@H]1OC(=O)C[C@H](O)CC[C@H](C)[C@@H](OC(=O)N2CCN(C)CC2)/C=C/[C@@H]1C
log10(GI50): 1.73
--
structure: C/C(=C\c1ccc2c(C)nn(C)c2c1)[C@H]1OC(=O)C[C@H](O)CC[C@H](C)[C@@H](OC(=O)N2CCN(C)CC2)/C=C/[C@@H]1C
log10(GI50): 1.45
--
structure: COc1ccc(S(=O)(=O)N2CCN(c3cc(F)cc(/C=C(\C)[C@H]4OC(=O)C[C@H](O)CC[C@H](C)[C@@H](OC(=O)N5CCN(C)CC5)/C=C/[C@@H]4C)c3)CC2)cc1
log10(GI50): 1.62
--
structure: C/C(=C\c1cc(F)cc(N2CCOCC2)c1)[C@H]1OC(=O)C[C@H](O)CC[C@H](C)[C@@H](OC(=O)N2CCN(C3CCCC3)CC2)/C=C/[C@@H]1C
log10(GI50): 1.08
--
structure: C/C(=C\c1cc(F)c2cn(CC3CC3)nc2c1)[C@H]1OC(=O)C[C@H](O)CC[C@H](C)[C@@H](OC(=O)N2CCN(C)CC2)/C=C/[C@@H]1C
log10(GI50): 1.89
--
structure: C/C(=C\c1cc(F)cc(N2CCN(C(=O)Cn3cccn3)CC2)c1)[C@H]1OC(=O)C[C@H](O)CC[C@H](C)[C@@H](OC(=O)N2CCN(C)CC2)/C=C/[C@@H]1C
log10(GI50): 0.32
--
structure: C/C(=C\c1cccc(S(=O)(=O)N2CCNCC2)c1)[C@H]1OC(=O)C[C@H](O)CC[C@H](C)[C@@H](OC(=O)N2CCN(C)CC2)/C=C/[C@@H]1C
log10(GI50): 2.04
--
structure: C/C(=C\c1cccc(N2CCN(C)CC2)c1)[C@H]1OC(=O)C[C@H](O)CC[C@H](C)[C@@H](OC(=O)N2CCN(C)CC2)/C=C/[C@@H]1C
log10(GI50): 1.48
--
structure: C/C(=C\c1cc(F)c2cnn(CC(=O)N3CCCC3)c2c1)[C@H]1OC(=O)C[C@H](O)CC[C@H](C)[C@@H](OC(=O)N2CCN(C)CC2)/C=C/[C@@H]1C
log10(GI50): 1.05
--
structure: C/C(=C\c1cc(F)cc(N2CC[C@H](N(C)C)C2)c1)[C@H]1OC(=O)C[C@H](O)CC[C@H](C)[C@@H](OC(=O)N2CCN(C)CC2)/C=C/[C@@H]1C
log10(GI50): 1.76
--
structure: C/C(=C\c1cc(F)cc(N2CCOCC2)c1)[C@H]1OC(=O)C[C@H](O)CC[C@H](C)[C@@H](OC(=O)N2CCN(CCO)CC2)/C=C/[C@@H]1C
log10(GI50): 1.37

Cited source: patent US11679107B2
